test_target: soluble human insulin receptor-immunoglobulin heavy chain chimera (human) (UniProt P06213)
test_details: phage ELISA
endpoint: IR/IGF-1R ratio comparison

Answered cases to consult:
# binder, recorded_measurement
data = [
    ("YRGMLVLGRISGGAGKAASERPARIGQKVSAVNFYDWFV [A6L-0-E3-IR]", 0.1),
    ("RGAVAGFHDQFYDWFDRQVSRVHKFG [H2CA-4-H9-IGFR]", 0.3),
    ("CCTTEMVVMDARDDPFYHKLSELVTGG [B6Hα-1-B5-IR]", 0),
]

a. QPDHSYFYSLLQELVGSEERL [20E2B-4-F9-IGFR]
b. SQAGSAFYAWFDQVLRTVHSA [20E2Bβ-4-G6-IR]
# input Hi there! Just curious which has the higher IR/IGF-1R ratio comparison between a and b . Answer with the label corresponding to your selection.
# output b
(b: 0.3, a: 0.1)
